Value source: patent US7799814B2

Measured log10 of IC50, listed per entry for reference.
- Target System: Human recombinant GST-PI3Kγ (Homo sapiens)
- Sequence (P48736 whole entry): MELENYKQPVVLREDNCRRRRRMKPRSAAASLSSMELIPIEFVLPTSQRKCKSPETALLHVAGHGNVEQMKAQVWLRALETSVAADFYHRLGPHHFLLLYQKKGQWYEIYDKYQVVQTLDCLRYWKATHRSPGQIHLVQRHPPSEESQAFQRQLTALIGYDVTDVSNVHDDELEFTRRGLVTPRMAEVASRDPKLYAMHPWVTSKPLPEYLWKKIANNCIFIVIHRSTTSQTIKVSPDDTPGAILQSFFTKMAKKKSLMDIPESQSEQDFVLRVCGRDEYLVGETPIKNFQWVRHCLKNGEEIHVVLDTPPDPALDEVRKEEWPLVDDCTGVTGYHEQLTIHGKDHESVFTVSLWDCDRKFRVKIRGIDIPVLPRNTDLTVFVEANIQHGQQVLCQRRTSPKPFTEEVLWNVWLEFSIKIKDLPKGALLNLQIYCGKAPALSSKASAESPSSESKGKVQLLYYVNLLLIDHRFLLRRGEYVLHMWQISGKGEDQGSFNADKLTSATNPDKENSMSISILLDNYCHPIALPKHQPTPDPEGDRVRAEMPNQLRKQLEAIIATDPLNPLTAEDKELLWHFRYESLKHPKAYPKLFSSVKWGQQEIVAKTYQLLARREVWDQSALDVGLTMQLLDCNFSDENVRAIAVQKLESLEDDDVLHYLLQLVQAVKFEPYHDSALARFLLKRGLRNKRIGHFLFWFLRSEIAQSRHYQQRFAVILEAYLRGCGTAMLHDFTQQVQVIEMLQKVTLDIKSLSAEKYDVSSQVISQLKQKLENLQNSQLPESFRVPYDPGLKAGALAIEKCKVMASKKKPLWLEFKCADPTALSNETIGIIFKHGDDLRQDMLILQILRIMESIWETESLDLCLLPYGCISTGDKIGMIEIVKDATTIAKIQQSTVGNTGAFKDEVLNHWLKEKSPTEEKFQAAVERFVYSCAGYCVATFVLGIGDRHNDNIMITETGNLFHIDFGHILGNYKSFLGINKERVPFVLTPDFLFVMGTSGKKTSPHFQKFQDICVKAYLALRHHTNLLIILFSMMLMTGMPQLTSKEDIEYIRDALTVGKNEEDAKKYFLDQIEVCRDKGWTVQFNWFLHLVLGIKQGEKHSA
- Test Summary: High Throughput PI3K Lipid Kinase Assay (scintillation proximity assay, neomycin-coated SPA beads)
Parameter: log10 of IC50 (log10 of the value in nM)

>>> observed("CCOC(=O)c1nc(-c2sc(NC(C)=O)nc2C)cs1")
2.94
>>> observed("CC(=O)Nc1nc(C)c(-c2csc(C(=O)O)n2)s1")
2.69
>>> observed("CC(=O)Nc1nc(C)c(-c2csc(C(=O)NCCCN(C)C)n2)s1")
3.34
>>> observed("CC(=O)Nc1nc(C)c(-c2csc(C(=O)Nc3nnn[nH]3)n2)s1")
1.11
>>> observed("CC(=O)Nc1nc(C)c(-c2csc(C(=O)N3CCN(C)CC3)n2)s1")
2.78
>>> observed("CC(=O)Nc1nc(C)c(-c2csc(C(=O)NCC3CCCO3)n2)s1 (centres unmarked)")
2.55
>>> observed("CC(=O)Nc1nc(C)c(-c2csc(C(=O)N3CCOCC3)n2)s1")
2.27
>>> observed("CC(=O)Nc1nc(C)c(-c2csc(C(=O)Nc3cccc(-c4nnc(N)s4)c3)n2)s1")
3.19
>>> observed("COCCNC(=O)Nc1nc(C)c(-c2csc(C(=O)N3CCOCC3)n2)s1")
2.90
>>> observed("CC(=O)Nc1nc(C)c(-c2csc(Cc3nnn[nH]3)n2)s1")
2.52
>>> observed("CCOC(=O)c1nc(-c2sc(Nc3cnccn3)nc2C)cs1")
3.15
